# Test system: MDA-MB-231 breast
# experiment_summary: NCI-60 one-dose screen, 48 h (100 = growth as untreated, 0 = no growth, -100 = all killed)
# setup_conditions: 10 µM unless noted
Compounds without any hit were thinned out: in the full panel of roughly 83,000, 20% have a hit.
attribute_measured: growth (%)

> print(dat)
                                    molecule  attribute.measured  numeric.result
 1                  Nc1cc(F)ccc1[N+](=O)[O-]              growth             105
 2                Cc1nc(C)c(C(=O)O)cc1C(=O)O              growth             108
 3               CCOC(=O)c1cc(Cl)c(O)c(Cl)c1              growth             106
 4              Cc1onc(-c2ccccc2Cl)c1C(=O)Cl              growth             101
 5      Nc1nc2nnc(-c3ccccc3)c(-c3ccccc3)n2n1              growth            88.7
 6    O=S(=O)(OCCOS(=O)(=O)c1ccccc1)c1ccccc1              growth             111
 7                              NNC(=O)CCCCl              growth             104
 8                       Cc1nc(O)cc(=O)[nH]1              growth             124
 9  COc1c(CNC(=O)CCl)cc2[nH]c(C)cc2c1CNC(=O)CCl              growth            87.7
10               S=c1nc2[nH]c3ccccc3c2n[nH]1              growth            86.6
11  Cc1cc2c(C(C)C)c(O)c(O)c(C=Nc3ccccc3[N+](=O)[O-])c2c(O)c1-c1c(C)cc2c(C(C)C)c(O)c(O)c(C=Nc3ccccc3[N+](=O)[O-])c2c1O              growth            74.4
12                  O=S(=O)(O)c1cccc2cccnc12              growth             120
13  NC(=S)N/N=C/c1ccc(OC(=O)COc2ccc(Cl)cc2)cn1              growth            66.6
14         CCOP(=O)(NC(c1ccccc1)c1ccccc1)OCC              growth             106
15          COC(=O)c1ccc([N+](=O)[O-])c(C)c1              growth             117
16                            O=CNCCc1ccccc1              growth             105
17              O=C(NC(=S)N1CC=CCC1)c1ccccc1              growth             104
18        CCOC(=O)CNC(=O)Sc1ccc(C(C)(C)C)cc1              growth             105
19  COc1ccc(-c2csc(NC(=O)Nc3nc(-c4ccc(OC)cc4)cs3)n2)cc1              growth            92.9
20    NC(=S)N/N=C/c1ccc(OC(=O)COc2ccccc2)cn1              growth              60
21        Oc1ccc(N=Cc2ccc(OCc3ccccc3)cc2)cc1              growth            92.5
22  CCC(C)C1CCC(O)CC1 (configuration not stated)              growth             112
23  C=CCC(OC(C)=O)c1ccc(OC)c(OC)c1 (configuration not stated)              growth             128
24  NC(=S)c1c(N)n(C2OC(CO)C(O)C2O)c2ncnc(N)c12 (configuration not stated)              growth            29.7
25                Cc1ccc([N+](=O)[O-])c(C)n1              growth             117
26                              CCNCC(C)(C)O              growth            94.9
27                CCOC(=O)c1ccc(C(C)(C)C)cc1              growth             114

* * *

# Test system: RXF 393 renal
# experiment_summary: NCI-60 one-dose screen, 48 h (100 = growth as untreated, 0 = no growth, -100 = all killed)
# setup_conditions: 10 µM unless noted
Compounds without any hit were thinned out: in the full panel of roughly 83,000, 20% have a hit.
Overview of reported growth across a group of compounds:
attribute_measured: growth (%)

> print(dat)
                                    compound  numeric.result
 1  CN(C)c1ccc(O)c2c1CC1CC3C(N(C)C)C(=O)C(C(N)=O)=C(O)C3(O)C(=O)C1=C2O (stereo not drawn)            46.3
 2           Cc1[nH]nc(C(N)=O)c1[N+](=O)[O-]            86.9
 3  Cc1cccnc1NC1OC(=O)c2ccccc21 (stereo not drawn)             118
 4         N#C/C(=C\c1ccc2c(c1)OCO2)c1ccccc1            83.6
 5  Cc1[nH]n(-c2ccccc2)c(=O)c1C=NC(=S)C(N)=S             106
 6             CC(CCC#N)(CCC#N)C(=O)c1ccccc1            98.6
 7           Nc1cc2c(cc1Cl)C(=O)c1ccccc1C2=O            72.2
 8  C=CCC(OC(C)=O)c1ccc(C(C)C)cc1 (stereo not drawn)             113
 9                              CCOC(C=O)OCC             121
10  CC(c1ccccc1)N1C(=O)CSC1=S (stereo not drawn)             -25
11  CCC(C)c1c(N)n(S(=O)(=O)c2ccc(C)cc2)oc1=O (stereo not drawn)             125
12  OCCOc1ccc(-c2cc(-c3ccccn3)nc(-c3ccccn3)c2)cc1            2.52
13                    CCCC(=O)CC(=O)c1ccccc1            93.6

* * *

# Tested on: UACC-62 melanoma
# experiment_summary: NCI-60 one-dose screen, 48 h
# setup_conditions: 10 µM unless noted
About 83,000 compounds went through this panel and 20% of them were active in at least one assay; those are over-represented in the sample as a whole. Activity calls are given as the source filed them. The calls were made as follows: active = growth percent below 10; inactive = the rest.
Classes used: label 1 for active, label 0 for inactive

> print(dat)
                                    compound  group.label
 1                  C=CCc1cc(OC)c(OC)c(OC)c1      label 0
 2   COc1cc(C(=O)NC(=S)NCc2ccncc2)cc(OC)c1OC      label 0
 3              Cc1ccnc(Nc2nc3ccccc3[nH]2)n1      label 0
 4  COc1cc(-c2ccc(NC(=O)CC(C)=O)c(OC)c2)ccc1NC(=O)CC(C)=O      label 0
 5                        CCC(/C=C\C(C)=O)CC      label 0
 6  C=C1C(=O)C2CCC1C2 (configuration not stated)      label 0
 7       S=c1nc(-c2ccccn2)c(-c2ccccn2)n[nH]1      label 0
 8                    CCOC(OCC)C(=O)c1ccccc1      label 0
 9    N#Cc1ccc(OC(=O)Nc2c(Cl)cc(Cl)cc2Cl)cc1      label 0
10       O=C(c1ccccc1)c1ccc(-c2ccc(O)cc2)cc1      label 0
11  ClCC(Cl)C1CCC(Cl)C(Cl)C1 (configuration not stated)      label 0
12  CC(=O)[C@@]1(O)CC[C@H]2[C@@H]3CC[C@@H]4CC(=O)CC[C@]4(C)[C@H]3[C@@H](O)C[C@@]21C      label 0
13           COc1cc(C(=O)O)c(O)c(C(C)(C)C)c1      label 0
14       O=C(O)CSCC(=O)Nc1cc(C(F)(F)F)ccc1Cl      label 0
15                       c1ccc(Nc2ccccn2)nc1      label 0
16  O=C(c1cccc(C(=O)c2ccc3c4c(cccc24)C(=O)N(c2ccccc2)C3=O)c1)c1ccc2c3c(cccc13)C(=O)N(c1ccccc1)C2=O      label 0
17           CCOC(=O)C(CCC#N)(CCC#N)C(=O)OCC      label 0
18        NC(=O)c1cc2c3ccccc3ccn2c1-c1ccccc1      label 0
19             Nc1ccc2c(c1)Cc1cc(N)c(N)cc1-2      label 0
20                   Cc1ccc2[nH]c3ccccc3c2c1      label 0
21  COc1ccc(C2CCCCC2=O)cc1 (configuration not stated)      label 0
22                         C=COC(=O)C(C)(C)C      label 0
23  C=C(C)[C@@H]1CC[C@]2(CO)CC[C@]3(C)[C@H](CC[C@@H]4[C@@]5(C)CC[C@H](O)C(C)(C)[C@@H]5CC[C@]43C)[C@@H]12      label 0
24                  Cc1ccc(N)c(S(=O)(=O)O)c1      label 0
25                             C=CCN1CCCC1=O      label 0
26       Cc1ccc(NCN2C(=O)c3ccccc3C2=O)c(C)n1      label 0
27                   CCCCNC(=O)c1ccc(OCC)cc1      label 0
28  CCCC(OC(C)=O)c1ccc2c(c1)OCO2 (configuration not stated)      label 0
29  O=C1NCC2CCCC1C2 (configuration not stated)      label 0
30               CCOC(=O)c1c(C)[nH]c(C)c1C=O      label 0
31                     Cc1ccc(C)c(CN(C)C)c1O      label 0
32       Cn1c(=O)c2[nH]c(CC(=O)O)nc2n(C)c1=O      label 0
33  CC(=O)C1C(=O)C(=O)N(c2ccc(Cl)c(Cl)c2)C1=O (configuration not stated)      label 0
34         CN(C)c1ccc2c(N(C)C)cc(N(C)C)nc2c1      label 0
35  COC1CC(OC(=O)c2ccc([N+](=O)[O-])cc2)C(COC(=O)c2ccc([N+](=O)[O-])cc2)O1 (configuration not stated)      label 0
36                        Clc1ncnc2nc[nH]c12      label 0
37  C[C@H](CCC[C@H](C)OS(=O)(=O)c1ccccc1)OS(=O)(=O)c1ccccc1      label 0
38  CCC(C)C1CCC(O)CC1 (configuration not stated)      label 0
39  CC(c1ccccc1)N1C(=O)CSC1=S (configuration not stated)      label 0
40                            O=Cc1ccc(F)cc1      label 0
41                         CC(=O)c1ccc(C)cc1      label 0
42         CNc1ccccc1C(=O)N/N=C/C=C/c1ccccc1      label 0
43   COc1ccc(/C=C\C(=O)/C=C/c2ccc(OC)cc2)cc1      label 0
44         Nc1ccc2ccccc2c1-c1c(N)ccc2ccccc12      label 0
45              CCC(=O)Oc1c(C)cc(O)c2ccccc12      label 0
46                    Cc1ccc[n+](CCC(N)=O)c1      label 0
47  CC(=O)NC(CCC(=O)c1ccccc1)C(=O)O (configuration not stated)      label 0
48  CN(C)CCOC(=O)Nc1ccc(Cc2ccc(NC(=O)OCCN(C)C)cc2)cc1      label 1
49  Oc1ccc(CCC2CCNc3ccccc32)cc1 (configuration not stated)      label 0
50       COc1nc(Nc2cccc(C(F)(F)F)c2)nc(OC)n1      label 0
51           CCCCNc1ccc(-c2ccc(NCCCC)cc2)cc1      label 0
52    NC(=S)N/N=C/c1ccc(OC(=O)COc2ccccc2)cn1      label 0
